# Tested on: Caco-2
# experimental-details: cell viability relative to DMSO; higher = less toxic
# assay-context: 72 h; 10 nM
metric: cell viability
Answer with the figure and its unit, nothing else.

1. CCn1c(-c2nonc2N)nc2cncc(CNC3CCNCC3)c21 : 95.1%
2. CC[C@]12CCCN3CCc4c(n(c5ccccc45)[C@@](O)(C(=O)OC)C1)[C@@H]32 [vincamine] : 105%
3. O=C(NCCCN1CCOCC1)c1cnn2c(-c3ccccc3)cc(-c3ccccc3)nc12 [reversan] : 97%
4. C[C@]12CC/C(=N\OCCN)C[C@@H]1C(=O)C[C@@H]1[C@@H]2CC[C@]2(C)C(=O)CC[C@@H]12 [istaroxime] : 93.1%
5. COc1cc([C@@H]2c3cc4c(cc3[C@@H](O[C@@H]3O[C@@H]5CO[C@@H](c6cccs6)O[C@H]5[C@H](O)[C@H]3O)[C@H]3COC(=O)[C@H]23)OCO4)cc(OC)c1O [teniposide] : 95.7%
6. C=C1/C(=C\C=C2/CCC[C@]3(C)[C@@H]([C@H](C)OCCC(C)(C)O)CC[C@@H]23)C[C@@H](O)C[C@@H]1O [maxacalcitol] : 91.3%
7. O=C(O)Cc1cccc2c(=O)cc(-c3ccccc3)oc12 [mitoflaxone] : 101%
8. Oc1c(I)cc(Cl)c2cccnc12 [clioquinol] : 92.2%
9. c1ccc2c(Oc3nc(Nc4ccc(N5CCOCC5)cc4)c4ncn(C5CCCCC5)c4n3)cccc2c1 [purmorphamine] : 94.2%
10. Clc1ccc(COC(Cn2ccnc2)c2ccc(Cl)cc2Cl)c(Cl)c1 (stereo not drawn) [miconazole] : 98%

For every item in the list below, what is its measured cell viability?
1. Cc1cc(-c2nc(C(=O)Nc3cn(C4CCOCC4)nc3C(N)=O)co2)ccn1
2. CC1Sc2c(C(=O)O)c(=O)c3cc(F)c(N4CCNCC4)cc3n21 (stereo not drawn) [ulifloxacin]
3. O=C1CN=C(c2cccc(Br)c2)c2oc3ccccc3c2N1 [5-BDBD]
4. Clc1cccc(-c2nnnn2Cc2cccnc2)c1Cl
5. CCCCCCCNS(=O)(=O)c1cccc2c(Cl)cccc12 [SC-10]
6. O=c1cc(-c2ccc(O)cc2)oc2cc(O)cc(O)c12 [apigenin]
7. CC(=O)N[C@H]1[C@H]([C@H](O)[C@H](O)CO)OC(O)(C(=O)O)C[C@@H]1O (mixture of isomers) [aceneuramic-acid]

OUT:
1. 94.4%
2. 124%
3. 96.6%
4. 104%
5. 99.9%
6. 94.2%
7. 99%

IN: Quick check: cell viability of c1nc(CC2CCNCC2)c[nH]1 [immepip] ?
OUT: 101%
